Test target: Gal(a1-3)GalNAc
Protocol summary: glycan array binding signal (z-score within array); higher = stronger binding
Condition context: glycan notation: IUPAC condensed, linker removed
The full list was thinned out, with the strongest signals kept by preference.
Measured endpoint: glycan array binding signal (z-score)
Would you mind answering with just the numeric figure?

Past entries and their recorded results:
Binder	glycan array binding signal (z-score)
RBMC2 (Vibrio cholerae) (protein) KISVRSGFAIDAIGASASTLVGGTGGNLNAAVNVKDIKAIDLTWGKYYWGGYHLLALDFRMSNGSVISMGSKNYAYSKQTERFTVPAGSRIKGIKAWTAGWLLDGVQFELA	-0.276
Epa21 (Candida glabrata) (protein) MGSSHHHHHHSSGLVPRGSHMASTPNIESHPQGCSPVDTSGIKPGLKMDLYRFPITPPGTGCWSWDWLTVTPDFPRSGYWKWPKIAEVDGVVGPLHLDSGHPTCDPLTSVLPHGFNYLQSITTTNFTMVLHGYFVPKQSGKYTFEFKADDALLLNLGAGNAFSCCDYNNSQYNQGEYLAYAIWSKNNQTATLYLEKGIYYPIRVFYHNRCCGAYMDVVYYFNDSPIPNRDFSGLLFSIPDSDSCDANI	-0.135

API: the following record is the query input.
stdin: Return the recorded glycan array binding signal (z-score) value; entry: RBMC1 (Vibrio cholerae) (protein) QQSQRVVTADNLMYLRSGFAIDAIGTTVNNLVGGPVQGTNGGVLRAPIALDQLQSVEVTSGLYNWGGYHIVAIKFTMKDGSSVLLGSTHYASNKKVETYTVPQGKRIKQINVWTGGWLVEGFQFVY
stdout: -0.237

Where do these numbers come from? They come from the supplement of paper PMC8728848.
